For each entry below, report its viability, T/C value.
# System: 695427-040-R-J1-PDC complex spheroid viability
# experiment_notes: Anticancer human tumor 695427-040-R-J1-PDC patient-derived colon adenocarcinoma cell line growth inhibition [POLQ]
# protocol_conditions: second compound 1 µM; first compound 3.16 µM; hits give low values
One number for each entry, in %.

compound="COc1cc(C2c3cc4c(cc3C(OC3OC5COC(C)OC5C(O)C3O)C3COC(=O)C23)OCO4)cc(OC)c1O (stereo unspecified) + Cc1cccc(N(C)C(=O)C2C(O)CCN2c2nc(C)cc(C(F)(F)F)c2C#N)c1" unit_spec=% recorded_measurement=91.9

Hi! Can you tell me viability, T/C for each of these compounds?
1. COc1ccc([C@@H](O)c2cc(-c3ncnc4cc(N5CCOCC5)ccc34)c(F)cc2Cl)nn1 + Nc1ccc(C#CCN(C(=O)Cc2ncc(C(F)(F)F)cc2C(F)(F)F)c2ccc(F)cc2)nn1
2. COc1cc(C2c3cc4c(cc3C(OC3OC5COC(C)OC5C(O)C3O)C3COC(=O)C23)OCO4)cc(OC)c1O (stereo unspecified) + Nc1ccc(C#CCN(C(=O)Cc2ncc(C(F)(F)F)cc2C(F)(F)F)c2ccc(F)cc2)nn1
3. C=CC(=O)N1CCN(c2nc(=O)n(-c3c(C)ccnc3C(C)C)c3nc(-c4c(O)cccc4F)c(F)cc23)C(C)C1 (stereo unspecified) + Cc1cccc(N(C)C(=O)C2C(O)CCN2c2nc(C)cc(C(F)(F)F)c2C#N)c1
4. Nc1ccn(C2OC(CO)C(O)C2(F)F)c(=O)n1 (stereo unspecified) + Cc1cccc(N(C)C(=O)C2C(O)CCN2c2nc(C)cc(C(F)(F)F)c2C#N)c1
5. CCc1cc2c(N3CCc4c(cc(Cn5ccnc5)cc4-c4cn(C)nc4C(F)(F)F)C3=O)cc(C)nc2c(OC)n1 + Nc1ccc(C#CCN(C(=O)Cc2ncc(C(F)(F)F)cc2C(F)(F)F)c2ccc(F)cc2)nn1

1: 86.2; 2: 106; 3: 97.5; 4: 66.5; 5: 98.5

Hi! Can you tell me viability, T/C for each of these compounds?
1. CCCS(=O)(=O)Nc1ccc(F)c(C(=O)c2c[nH]c3ncc(-c4ccc(Cl)cc4)cc23)c1F + Nc1ccc(C#CCN(C(=O)Cc2ncc(C(F)(F)F)cc2C(F)(F)F)c2ccc(F)cc2)nn1
2. Nc1ccn(C2OC(CO)C(O)C2(F)F)c(=O)n1 (stereo unspecified) + Nc1ccc(C#CCN(C(=O)Cc2ncc(C(F)(F)F)cc2C(F)(F)F)c2ccc(F)cc2)nn1
3. CC(C)n1c(=O)n(C)c2cnc3cc(F)c(-c4ccc(OCCCN5CCCCC5)nc4)cc3c21 + COC1C(OC(N)=O)C(O)C(Oc2ccc3c(O)c(NC(=O)c4ccc(O)c(CC=C(C)C)c4)c(=O)oc3c2C)OC1(C)C
4. O=C(Nc1ccc(O)c(NS(=O)(=O)c2ccc(F)cc2)c1)c1ccc(-c2ccccc2)cc1 + COC1C(OC(N)=O)C(O)C(Oc2ccc3c(O)c(NC(=O)c4ccc(O)c(CC=C(C)C)c4)c(=O)oc3c2C)OC1(C)C
5. CCc1cc2c(N3CCc4c(cc(Cn5ccnc5)cc4-c4cn(C)nc4C(F)(F)F)C3=O)cc(C)nc2c(OC)n1 + Cc1cccc(N(C)C(=O)C2C(O)CCN2c2nc(C)cc(C(F)(F)F)c2C#N)c1

[110, 80.7, 105, 108, 108]

###

# Test system: 695427-040-R-J1-PDC complex spheroid viability
# experiment_notes: Anticancer human tumor 695427-040-R-J1-PDC cell line growth inhibition [POLQ];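 note: spheroids exposed to compounds for seven days; 100% = DMSO vehicle control viability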
# protocol_conditions: second compound 0.1 µM; first compound 1 µM; hits give low values
For each entry below, report its viability, T/C value.
Answers are plain numbers, in %.

Previously resolved entries follow.
compound="CCc1cc2c(N3CCc4c(cc(Cn5ccnc5)cc4-c4cn(C)nc4C(F)(F)F)C3=O)cc(C)nc2c(OC)n1 + Nc1ccc(C#CCN(C(=O)Cc2ncc(C(F)(F)F)cc2C(F)(F)F)c2ccc(F)cc2)nn1" recorded_measurement=101
compound="C=CCn1c(=O)c2cnc(Nc3ccc(N4CCN(C)CC4)cc3)nc2n1-c1cccc(C(C)(C)O)n1 + Cc1cccc(N(C)C(=O)C2C(O)CCN2c2nc(C)cc(C(F)(F)F)c2C#N)c1" recorded_measurement=69.5
compound="COc1cc(C2c3cc4c(cc3C(OC3OC5COC(C)OC5C(O)C3O)C3COC(=O)C23)OCO4)cc(OC)c1O (stereo not given) + Nc1ccc(C#CCN(C(=O)Cc2ncc(C(F)(F)F)cc2C(F)(F)F)c2ccc(F)cc2)nn1" recorded_measurement=104
compound="COc1cccc2c1C(=O)c1c(O)c3c(c(O)c1C2=O)CC(O)(C(=O)CO)CC3OC1CC(N)C(O)C(C)O1 (stereo not given) + Cc1cccc(N(C)C(=O)C2C(O)CCN2c2nc(C)cc(C(F)(F)F)c2C#N)c1" recorded_measurement=69
compound="C=CCn1c(=O)c2cnc(Nc3ccc(N4CCN(C)CC4)cc3)nc2n1-c1cccc(C(C)(C)O)n1 + COC1C(OC(N)=O)C(O)C(Oc2ccc3c(O)c(NC(=O)c4ccc(O)c(CC=C(C)C)c4)c(=O)oc3c2C)OC1(C)C" recorded_measurement=80.3

Hi! Can you tell me viability, T/C for each of these compounds?
1. O=C(c1cc(Cc2n[nH]c(=O)c3ccccc23)ccc1F)N1CCN(C(=O)C2CC2)CC1 + COC1C(OC(N)=O)C(O)C(Oc2ccc3c(O)c(NC(=O)c4ccc(O)c(CC=C(C)C)c4)c(=O)oc3c2C)OC1(C)C
2. CCc1cc2c(N3CCc4c(cc(Cn5ccnc5)cc4-c4cn(C)nc4C(F)(F)F)C3=O)ccnc2c(OC)n1 + Nc1ccc(C#CCN(C(=O)Cc2ncc(C(F)(F)F)cc2C(F)(F)F)c2ccc(F)cc2)nn1
3. CCc1cc2c(N3CCc4c(cc(Cn5ccnc5)cc4-c4cn(C)nc4C(F)(F)F)C3=O)cc(C)nc2c(OC)n1 + Cc1cccc(N(C)C(=O)C2C(O)CCN2c2nc(C)cc(C(F)(F)F)c2C#N)c1
4. CCc1cc2c(N3CCc4c(cc(Cn5ccnc5)cc4-c4cn(C)nc4C(F)(F)F)C3=O)cc(C)nc2c(OC)n1 + COC1C(OC(N)=O)C(O)C(Oc2ccc3c(O)c(NC(=O)c4ccc(O)c(CC=C(C)C)c4)c(=O)oc3c2C)OC1(C)C
5. COc1cccc(OCCCN)c1-c1cc(Nc2cnc(C#N)cn2)n[nH]1 + Cc1cccc(N(C)C(=O)C2C(O)CCN2c2nc(C)cc(C(F)(F)F)c2C#N)c1

105
100
107
96.5
48.3

###

# Test system: 695427-040-R-J1-PDC complex spheroid viability
# experiment_notes: Anticancer human tumor 695427-040-R-J1-PDC cell line growth inhibition [POLQ];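 note: spheroids exposed to compounds for seven days; 100% = DMSO vehicle control viability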
# protocol_conditions: second compound 10 µM; first compound 0.316 µM; hits give low values
Decision: viability, T/C beneath 90% gives Criterion met; viability, T/C meeting or exceeding 90% gives Criterion not met.

The following compounds have reported results that may help.
compound="O=c1[nH]cc(F)c(=O)[nH]1 + Nc1ccc(C#CCN(C(=O)Cc2ncc(C(F)(F)F)cc2C(F)(F)F)c2ccc(F)cc2)nn1" category="Criterion not met"
compound="CCc1cc2c(N3CCc4c(cc(Cn5ccnc5)cc4-c4cn(C)nc4C(F)(F)F)C3=O)cc(C)nc2c(OC)n1 + Nc1ccc(C#CCN(C(=O)Cc2ncc(C(F)(F)F)cc2C(F)(F)F)c2ccc(F)cc2)nn1" category="Criterion not met"
compound="CCc1c2c(nc3ccc(O)cc13)-c1cc3c(c(=O)n1C2)COC(=O)[C@]3(O)CC + Nc1ccc(C#CCN(C(=O)Cc2ncc(C(F)(F)F)cc2C(F)(F)F)c2ccc(F)cc2)nn1" category="Criterion met"

Strictly below 90% in viability, T/C? CC1COCCN1c1cc(C2(S(C)(=N)=O)CC2)nc(-c2ccnc3[nH]ccc23)n1 (configuration not stated) + COC1C(OC(N)=O)C(O)C(Oc2ccc3c(O)c(NC(=O)c4ccc(O)c(CC=C(C)C)c4)c(=O)oc3c2C)OC1(C)C
Criterion not met

Strictly below 90% in viability, T/C? C#Cc1c(F)ccc2cc(O)cc(-c3ncc4c(N5CC6CCC(C5)N6)nc(OCC56CCCN5CC(F)C6)nc4c3F)c12 (configuration not stated) + Nc1ccc(C#CCN(C(=O)Cc2ncc(C(F)(F)F)cc2C(F)(F)F)c2ccc(F)cc2)nn1
Criterion met

###

# System: 695427-040-R-J1-PDC complex spheroid viability
# experiment_notes: Anticancer human tumor 695427-040-R-J1-PDC cell line growth inhibition [POLQ];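 note: spheroids exposed to compounds for seven days; 100% = DMSO vehicle control viability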
# protocol_conditions: second compound 3.16 µM; first compound 0.0316 µM; hits give low values
assay_endpoint: viability, T/C (%)
Numbers only, in %.

compound="COc1cc2cc(C(=O)CCC(=O)O)sc2cc1OC + Nc1ccc(C#CCN(C(=O)Cc2ncc(C(F)(F)F)cc2C(F)(F)F)c2ccc(F)cc2)nn1" recorded_measurement=111
compound="CC1COCCN1c1cc(C2(O)CC3CCC(C2)O3)c2cnn(-c3ccn[nH]3)c2n1 (stereo unspecified) + Cc1cccc(N(C)C(=O)C2C(O)CCN2c2nc(C)cc(C(F)(F)F)c2C#N)c1" recorded_measurement=96

Hi! Can you tell me viability, T/C for each of these compounds?
1. CCc1cc2c(N3CCc4c(cc(Cn5ccnc5)cc4-c4cn(C)nc4C(F)(F)F)C3=O)ccnc2c(OC)n1 + COC1C(OC(N)=O)C(O)C(Oc2ccc3c(O)c(NC(=O)c4ccc(O)c(CC=C(C)C)c4)c(=O)oc3c2C)OC1(C)C
2. CC[C@@]1(O)C(=O)OCc2c1cc1n(c2=O)Cc2cc3c(CN(C)C)c(O)ccc3nc2-1 + COC1C(OC(N)=O)C(O)C(Oc2ccc3c(O)c(NC(=O)c4ccc(O)c(CC=C(C)C)c4)c(=O)oc3c2C)OC1(C)C
3. CCc1c2c(nc3ccc(O)cc13)-c1cc3c(c(=O)n1C2)COC(=O)[C@]3(O)CC + COC1C(OC(N)=O)C(O)C(Oc2ccc3c(O)c(NC(=O)c4ccc(O)c(CC=C(C)C)c4)c(=O)oc3c2C)OC1(C)C
4. COc1ccc([C@@H](O)c2cc(-c3ncnc4cc(N5CCOCC5)ccc34)c(F)cc2Cl)nn1 + Cc1cccc(N(C)C(=O)C2C(O)CCN2c2nc(C)cc(C(F)(F)F)c2C#N)c1

103
105
87.7
92
